system: fMLF/cytochalasin B (CB)-activated human neutrophils; assay: Elastase release in fMLF/CB-activated human neutrophils; format: cell-based; conditions: fMLF/CB stimulation; mean ± SEM (n = 3–5)
pIC50: −log10 of the molar value.

# Mol Smiles, Tgt, pIC50
measured = [
    ("COc1cccc(C(=O)/C=C/c2ccc([N+](=O)[O-])cc2)c1", "fMLF/cytochalasin B (CB)-activated human neutrophils", 5.65),
]

====

Each entry below carries its recorded melting point.

# Compound, melting point
rows = [
    ("CC(C)(C)Oc1ccc(/C=C/C(=O)c2ccc[nH]2)cc1", "116.5 to 118.5 °C"),
    ("O=C(/C=C/c1ccc2ccccc2n1)c1ccccc1", "118 to 120 °C"),
    ("COc1ccccc1C(=O)/C=C/c1ccc(Cl)cc1 [Compound 12a]", "76 to 78 °C"),
    ("COc1cccc(C(=O)/C=C/c2ccccc2Cl)c1 [Compound 18a]", "117 °C"),
    ("CC(C)(C)C(=O)/C=C/c1cc(F)cc(F)c1", "71 to 72 °C"),
    ("COc1cc(F)c(/C=C/C(=O)C(C)(C)C)cc1F", "131 to 132 °C"),
    ("CC(C)(C)C(=O)/C=C/c1ccc(C(F)(F)F)cc1", "70 to 71 °C"),
    ("CC(C)(C)C(=O)/C=C/c1ccc(C#N)cc1", "131 to 133 °C"),
    ("CC(C)(C)Oc1ccc(/C=C/C(=O)C(C)(C)C)cc1", "110 to 111 °C"),
    ("COc1ccc(C(=O)/C=C/c2cccc(Cl)c2)cc1 [Compound 22a]", "97 to 99 °C"),
]
